# Test system: LOX IMVI
# Assay Procedure: NCI tumour cell line growth inhibition, 48 h
Calls of active or inactive are those of the source. Cut-off read from the data, not from the text of the source: active = GI50 up to about 1.1 µM and inactive = higher.
Measurement Label: GI50

Please review the entries below; each comes with its answer.
>  <Compound>
CC1=NN=C(N)N/C1=C\C(Sc1ccc(Cl)cc1)c1ccc([N+](=O)[O-])cc1 (stereo not given)

>  <Measurement Label>
GI50

>  <Assay Value>
51.8 µM (inactive)

$$$$
>  <Compound>
COc1ccc2c(=O)c3cc([N+](=O)[O-])ccc3n(C)c2c1

>  <Measurement Label>
GI50

>  <Assay Value>
> 100 µM (inactive)

$$$$
>  <Compound>
Nc1c(C(=O)c2ccc(Cl)c(Cl)c2)[nH]c(NCc2ccccc2)c1C(=S)Nc1ccccc1

>  <Measurement Label>
GI50

>  <Assay Value>
2.21 µM (inactive)

$$$$

Provide GI50 values for the following items, in order.
1. COc1cc(C2c3cc4c(cc3OC(NNS(=O)(=O)c3ccc(C)cc3)C2C)OCO4)cc(OC)c1O (stereo not given)
2. COC(=O)C(Cc1c[nH]c2ccccc12)NC(=O)C(Cc1c[nH]c2ccccc12)NC(=O)OCc1ccccc1 (stereo not given)
3. CN(C)c1[se]nc2c1c(=O)n(C)c(=O)n2C
4. c1ccc(SCCc2ccncc2)cc1
5. CC(C)(C)C(=O)Nc1ccccc1Br
6. O=C(O)c1ccccc1NS(=O)(=O)c1ccc([N+](=O)[O-])cc1

OUT:
12 µM (inactive)
18.3 µM (inactive)
> 100 µM (inactive)
> 100 µM (inactive)
> 100 µM (inactive)
> 100 µM (inactive)

IN: Lab note: LOX IMVI assay, enter GI50 for CC(=O)/C=C/c1ccc(C2CC(C)=Nc3c(ccc4c3C(=O)c3ccccc3C4=O)N2)cc1 (stereo not given) here
OUT: 8.83 µM (inactive)

Provenance of the data: ChEMBL document CHEMBL1201862
